Biological target: T1, Recombinant STUB1 protein, spanning aa25-aa153 (UniProt Q9UNE7 25-153)
T1 chain: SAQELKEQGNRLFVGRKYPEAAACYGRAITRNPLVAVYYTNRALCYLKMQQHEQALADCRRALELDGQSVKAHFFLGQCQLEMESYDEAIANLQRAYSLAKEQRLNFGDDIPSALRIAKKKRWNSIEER
Test: ITC
MEASUREMENT_KIND: Kd

Entry Ac-TIEEVD-OH needs its Kd filled in; supply it.
2190 nM
